# Test system: PC-3
# method notes: Cytotoxic activity in vitro, SRB
# Type: cell-based, human
measured quantity: pEC50
By convention, pEC50 is the negative base-10 log of a molar concentration.

>  <compound>
O=c1c2ccccc2[nH]c2c([N+](=O)[O-])ccc(NCCNCCNCCNc3c4ccccc4nc4cccc([N+](=O)[O-])c34)c12 [C-2033]

>  <pEC50>
7.49

$$$$
>  <compound>
CN(CCCNc1c2ccccc2nc2cccc([N+](=O)[O-])c12)CCCNc1ccc([N+](=O)[O-])c2[nH]c3ccc(O)cc3c(=O)c12 [C-1906]

>  <pEC50>
7.28

$$$$

// query What reported pEC50 corresponds to O=c1c2ccccc2[nH]c2c([N+](=O)[O-])ccc(NCCCN3CCN(CCCNc4c5ccccc5nc5cccc([N+](=O)[O-])c45)CC3)c12 [C-2031] on PC-3?
// result 7.59
